Recorded values, source PubChem BioAssay (NCI).

System: MCF7 breast
Experiment summary: NCI-60 one-dose screen, 48 h
Condition parameters: 10 µM unless noted
The panel holds about 83,000 compounds, 20% with a hit somewhere; the sample as a whole holds those more often. The source made the active and inactive calls. Rule for the calls: active = growth percent below 10; inactive = the rest.
Field 'call' accepts t for active, f for inactive

Please let me know the test result on file for CC/C(=C(\c1ccc(O)cc1)c1ccc(OCCN(C)CCN(C)C(=O)CCCCC(=O)c2c(C)[nH]c(/C=C3\N=C(c4ccc[nH]4)C=C3OC)c2C)cc1)c1ccccc1 .
f

Please let me know the test result on file for Cl/C(=N\Nc1ccccc1)c1ccccc1 .
f

Please let me know the test result on file for CC(=O)C1=C(O)C=C2Oc3c(C(=O)/C=C/c4c(Cl)cccc4Cl)c(O)c(C)c(O)c3[C@]2(C)C1=O .
t

Please let me know the test result on file for COc1cc(NC(N)=NCC(C)(C)COc2ccc(C(F)(F)F)cc2)cnc1C#N .
f

Please let me know the test result on file for CC/C=C\C[C@H](O)C/C=C1/C(=O)C=C[C@@H]1C/C=C\CCCC(=O)NC(C)C .
f

Please let me know the test result on file for CCCCCCCCCCCCCC1=NCCN1CCO .
f

Please let me know the test result on file for CN(C)c1ccc(/C=C(\C#N)c2nc3ccccc3s2)cc1 .
f

Please let me know the test result on file for O=C(/C=C/c1ccc(Cl)cc1)/C=C/c1cc2ccccc2[nH]c1=O .
t

Please let me know the test result on file for CC#CC#Cc1cccc(=O)o1 .
f

Please let me know the test result on file for CCN(CC)CCC(=O)c1ccc(OC)c2ccccc12 .
f

Please let me know the test result on file for CC(=O)OCC(=O)C1CCC=CC1OC(C)=O (stereo not given) .
f

Please let me know the test result on file for COc1cc(/C=C2\CN(C(=O)CCN3CCC(=NO)CC3)C/C(=C\c3cc(OC)c(OC)c(OC)c3)C2=O)cc(OC)c1OC .
t

Please let me know the test result on file for C=C1C(=O)O[C@H]2[C@H]1CC/C(Cn1cc(Cc3c[nH]c4ccccc34)nn1)=C\CC[C@@]1(C)O[C@@H]21 .
t

Please let me know the test result on file for CNc1nc(C)c(-c2nc(Nc3cccc(S(N)(=O)=O)c3)ncc2F)s1 .
t

Please let me know the test result on file for NC(=S)N/N=C/c1ccc(OCc2ccccc2)cc1 .
f

Please let me know the test result on file for CC[n+]1ccc2c(c1)C(=O)c1nccc3c1c-2nc1ccccc13 .
t

Please let me know the test result on file for Cn1cc(-c2nc(-c3c[nH]c4ccccc34)cs2)c2cccnc21 .
f

Please let me know the test result on file for COc1cccc(-c2nc3sccn3c2-c2ccnc(NCCCNS(=O)(=O)c3ccccc3)c2)c1 .
f

Please let me know the test result on file for COc1ccc(-c2cc(-c3cccnc3)nc3sc4c(=O)n(-c5ccc(C)cc5)cnc4c23)cc1OC .
f

Please let me know the test result on file for COc1ccc(-c2cc(-c3ccc(N(C)C)cc3)nc(NC(=O)c3ccncc3)n2)cc1 .
f

Please let me know the test result on file for COc1ccc(-c2nn(-c3ccccc3)cc2/C=C/C(=O)OCc2cn(-c3ccc(F)c(Cl)c3)nn2)cc1 .
f

Please let me know the test result on file for CCN(CC)CC#CCOC(=O)[C@]1(C)CCC[C@@]2(C)[C@H]1CC(C=O)=C1C=C(C(C)C)CC[C@@H]12 .
f

Please let me know the test result on file for Cn1c2ccccc2c2c3c(c4c5ccccc5n(CCCCCC#N)c4c21)C(=O)N(O)C3=O .
t

Please let me know the test result on file for Nc1nc(SCc2ccccc2)c2ncn(C3CCCC3)c2n1 .
f

Please let me know the test result on file for COc1cnc2c(c1)C(=O)c1c-2n(CCCBr)c(=O)c2cc([N+](=O)[O-])ccc12 .
t

Please let me know the test result on file for CC(C)[C@H]1COC(=O)N1[C@@H]1C(=O)N([C@@H](CCC(=O)N2CCN(C3CCCC3)CC2)C(=O)N[C@@H]2CCCc3ccccc32)[C@@H]1/C=C/c1cccc(Br)c1 .
f

Please let me know the test result on file for COc1c2ccccc2c(OC)c2[nH]c(=O)ccc12 .
f

Please let me know the test result on file for O=C1OC2C(I)C3CC2C1C3c1ccccc1 (stereo not given) .
f

Please let me know the test result on file for CS(=O)(=O)c1c(Nc2ccccc2)n[nH]c1N .
f

Please let me know the test result on file for Cn1c(=O)c2[nH]c(C(O)C(O)C(O)C(O)CO)nc2n(C)c1=O (stereo not given) .
f

Please let me know the test result on file for CC/C(Cc1ccccc1)=C(/c1ccc(O)cc1)c1ccc(OCCN2CCCC2)cc1 .
t

Please let me know the test result on file for Clc1ccc(-c2nnc(COc3ccccc3Cl)o2)cc1 .
f

Please let me know the test result on file for COc1ccc(CN(c2ccc(C)cc2)C2OC(=O)c3ccccc32)cc1OC (stereo not given) .
f

Please let me know the test result on file for CN(CC(=O)N(Cc1ccc(C2CCCCC2)cc1)c1ccc(C(=O)NO)cc1)S(=O)(=O)c1c(F)c(F)c(F)c(F)c1F .
f

Please let me know the test result on file for CN1CCN(Cc2ccc(NC(=O)c3cncc(C#Cc4c(N)ncc5ccc(C#N)cc45)c3)cc2C(F)(F)F)CC1 .
t

Please let me know the test result on file for O=C1C[C@H](Sc2nc(-c3ccc(F)cc3)cc(C(F)(F)F)n2)[C@H]2CO[C@@H]1O2 .
f

Please let me know the test result on file for CC/C=C\C[C@H](O)C/C=C1/C(=O)C=C[C@@H]1C/C=C\CCCC(=O)NC .
t

Please let me know the test result on file for OCCNCCNc1c2ccccc2nc2ccccc12 .
f

Please let me know the test result on file for O=c1c2cccc3c(Nc4ccccn4)ccc(c32)c2nc3ccccc3n12 .
f

Please let me know the test result on file for Oc1ccc(Nc2nccc(-c3ccc4ccccc4c3)n2)cc1 .
f

###

Tested on: CCRF-CEM leukemia
Experiment summary: NCI-60 one-dose screen, 48 h
Condition parameters: 10 µM unless noted
The panel holds about 83,000 compounds, 20% with a hit somewhere; the sample as a whole holds those more often. The source made the active and inactive calls. How the source made its calls: active means growth percent below 10; inactive means the rest.
Field 'call' accepts T = active, F = inactive

Please let me know the test result on file for CCCCCCCCCCCCCCCC(=O)OCC1OC(n2cnc3c(=S)nc(N)[nH]c32)C(OC(=O)CCCCCCCCCCCCCCC)C1OC(=O)CCCCCCCCCCCCCCC (centres undefined) .
F

Please let me know the test result on file for CN1CCN(c2ccc3nc(-c4ccc5nc(-c6ccc(OCCC(C)(C)C)cc6)[nH]c5c4)[nH]c3c2)CC1 .
T

Please let me know the test result on file for CC1=CC(=O)CC(C)(C)[C@@]1(O)/C=C/[C@@H](C)O .
F

Please let me know the test result on file for COc1ccc(C(=O)c2sc3nc4c(cc3c2N)CCCC4)cc1OC .
F

Please let me know the test result on file for Cc1cc(-c2nc3ccccc3s2)ccc1NC(=O)COc1ccc(Cl)cc1 .
F

Please let me know the test result on file for Cc1cc(Cl)ccc1Nc1nc(C(F)(F)F)ccc1C(=O)N/N=C/c1ccc(F)cc1 .
T

Please let me know the test result on file for O=S(=O)(NCCCNc1cc(-c2cn(-c3ccccc3)nc2-c2ccccc2)ccn1)c1ccc(C(F)(F)F)cc1 .
F

Please let me know the test result on file for C=C1CC2(OC1=O)C(=O)Nc1ccccc12 (centres undefined) .
T

Please let me know the test result on file for O=C(Nc1cccc2c1C(=O)c1cccc(Nc3cccc4c3C(=O)c3cccc(NC(=O)c5ccccc5)c3C4=O)c1C2=O)c1ccccc1 .
F

###

Tested on: SNB-19 CNS
Experiment summary: NCI-60 one-dose screen, 48 h (100 = growth as untreated, 0 = no growth, -100 = all killed)
Condition parameters: 10 µM unless noted
About 83,000 compounds went through this panel and 20% of them were active in at least one assay; those are over-represented in the sample as a whole.
Quantity kind: growth (%)
Write it as a number; the unit % goes unstated.

May I ask what growth has been recorded for COc1ccc(-c2c3c(nc4n[nH]c(-c5ccc(Cl)cc5)c24)-c2ccccc2C(=O)C3=O)cc1 ?
44.3

May I ask what growth has been recorded for COC(=O)[C@@H]1CC[C@]2(C)[C@H](CC[C@@H]3O[C@@]32C)[C@@]1(C)CC(=O)c1ccoc1 ?
91.1

May I ask what growth has been recorded for O=C(CN1CCN(c2cc3c(cc2F)c(=O)c(C(=O)O)cn3C2CC2)CC1)Nc1cc(=O)[nH]c(=O)[nH]1 ?
97.4

May I ask what growth has been recorded for O=C(NC(Cc1ccccc1)C(=O)CCl)OCc1ccccc1 (centres undefined) ?
82.2

May I ask what growth has been recorded for Cc1cc(Nc2nc(N3CCOCC3)nc3ccccc23)n[nH]1 ?
93.2

May I ask what growth has been recorded for CC[C@H](Nc1nc(N)nc(C)c1C#N)c1nc2cccc(NCc3ccc(C(=O)NO)cc3)c2c(=O)n1-c1ccccc1 ?
7.28

May I ask what growth has been recorded for CN1CCOCCOCCOc2ccccc2NC(=O)c2nc(cnc2N)-c2ccc(cc2)S1(=O)=O ?
82.5

May I ask what growth has been recorded for CN1CCCCC1CCN1c2ccccc2Sc2ccc(Br)cc21 (centres undefined) ?
97.4

May I ask what growth has been recorded for Clc1cccc(Nc2nc(Nc3cnc4ccccc4c3)c3[nH]cnc3n2)c1 ?
80.6
